System: IL-1β production in human peripheral blood mononuclear cells (PBMCs)
Test: inhibition of LPS-stimulated IL-1β production in human PBMCs (ELISA)
Type: cell-based
Conditions: LPS stimulated overnight, mature IL-1β by ELISA, read-out: PBMC IC50
PARAMETER: IC50 (µM)
Express your answer in µM, writing the number without its unit.

IN: # IC50 lookup, item COC(=O)CC1CCCC2CC(=O)N(OCC(=O)C(CC(=O)O)NC(=O)C(C)NC(=O)C(NC(=O)OCc3ccccc3)C(C)C)C12 (stereo not shown) [Example 7]
OUT: 4.8

----------
Tested on: IL-1β production in human peripheral blood mononuclear cells (PBMCs)
Test: inhibition of LPS-stimulated IL-1β production in human PBMCs (ELISA)
Format: cell-based
Conditions: PBMC, LPS stimulated overnight, mature IL-1β by ELISA
PARAMETER: pIC50
Recall that pIC50 is obtained by taking minus log10 of the concentration measured in molar.

IN: # pIC50 lookup, item COC(=O)CC1CCCC2CC(=O)N(OCC(=O)[C@H](CC(=O)O)NC(=O)OCc3ccccc3)C12 (some centres unmarked)
OUT: 3.05

IN: # pIC50 lookup, item CC(NC(=O)C(NC(=O)OCc1ccccc1)C(C)C)C(=O)NC(CC(=O)O)C(=O)CON1C(=O)Cc2ccccc21 (centres unmarked)
OUT: 5.52

IN: # pIC50 lookup, item O=C(O)CC(NC(=O)OCc1ccccc1)C(=O)CON1C(=O)Cc2ccccc21 (centres unmarked)
OUT: 3.00

IN: # pIC50 lookup, item O=C(O)C[C@H](NC(=O)OCc1ccccc1)C(=O)CON1C(=O)C2C3C=CC(O3)C2C1=O (some centres unmarked)
OUT: 3.00

IN: # pIC50 lookup, item O=C(O)CC(NC(=O)OCc1ccccc1)C(=O)CONC(=O)Cc1ccccc1 (centres unmarked)
OUT: 3.09
